Provenance of the data: patent US8822517B2

# Test target: serotoninergic receptor 5-HT2C (Homo sapiens, UniProt P28335)
# Construct: expressed in transfected cells; host or cells: HEK-293 cells
# Sequence (P28335 33-458): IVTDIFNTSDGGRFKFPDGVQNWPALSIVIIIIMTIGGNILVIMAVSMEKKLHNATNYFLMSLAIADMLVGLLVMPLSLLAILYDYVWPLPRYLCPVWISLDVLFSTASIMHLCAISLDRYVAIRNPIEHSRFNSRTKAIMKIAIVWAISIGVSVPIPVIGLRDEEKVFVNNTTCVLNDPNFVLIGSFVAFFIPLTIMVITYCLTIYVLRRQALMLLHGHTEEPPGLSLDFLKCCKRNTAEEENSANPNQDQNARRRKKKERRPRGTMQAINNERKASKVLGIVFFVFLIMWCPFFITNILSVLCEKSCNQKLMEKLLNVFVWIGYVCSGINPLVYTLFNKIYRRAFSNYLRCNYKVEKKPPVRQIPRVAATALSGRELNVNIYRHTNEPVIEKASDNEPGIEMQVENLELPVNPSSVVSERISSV
# Assay procedure: Binding assay 5-HT2C (h), [3H]mesulergine, HEK-293 cells
# Condition info: read-out: 5-HT2C [%]
For each of the molecules below, state its inhibition at 1 µM.
Use % as the unit, but write only the number.

Challenge: Tell me inhibition at 1 µM reported for O=S(=O)(NCCCCN1CCC(c2noc3cc(F)ccc23)CC1)c1cc2ccccc2o1 [Compound 316]
Response given: 66

Challenge: Tell me inhibition at 1 µM reported for O=S(=O)(NCCCCN1CCC(c2noc3cc(F)ccc23)CC1)c1ccc2ccccc2c1 [Compound 18]
Response given: 73

Challenge: Tell me inhibition at 1 µM reported for Cc1c(S(=O)(=O)NCCCN2CCC(c3noc4cc(F)ccc34)CC2)sc2ccc(F)cc12 [Compound 102]
Response given: 76

Challenge: Tell me inhibition at 1 µM reported for O=c1[nH]c2ccc(S(=O)(=O)NCCCCN3CCN(c4nsc5ccccc45)CC3)cc2o1 [Compound 4]
Response given: 91
